# Test system: VSV-G
# experiment: microbe, parasite or virus in culture
# Type: cell-based
# conditions.used: Vesicular stomatitis virus, read-out: VSV-G IC50
pIC50: −log10 of the molar value.
value.kind: pIC50

Qu. Query for VSV-G: what pIC50 does the record show for "CCCC[C@@H](C=O)NC(=O)[C@H](CC(C)C)NC(=O)OCc1ccccc1" ?
Ans. < 4.70

These data points were gathered from paper PMC8577999.
